Test system: L6
Test: Activation of AMPK in differentiated Sprague-Dawley rat L6 myotube cells assessed as glucose consumption at 20 uM after 12 hrs by colorimetric assay (reference value: 100 +/- 1.8%)
Format: cell-based
Yes if Activity is below 200%. No if not; exact matches included in No.

Say whether its Activity is strictly beneath 200%. Entry: COc1ccc(OC)c2c1CC1c3cc(Cc4nccs4)sc3CCN1C2 (stereo not given)
Yes

Say whether its Activity is strictly beneath 200%. Entry: COc1ccc(OC)c2c1CC1c3cc(Cc4ccc(F)cc4)sc3CCN1C2 (stereo not given)
No

Say whether its Activity is strictly beneath 200%. Entry: c1cc2c(s1)CC1c3cc4c(cc3CCN1C2)OCO4 (stereo not given)
Yes

Say whether its Activity is strictly beneath 200%. Entry: COc1ccc(OC)c2c1CC1c3cc(Cc4ccc5c(c4)CCO5)sc3CCN1C2 (stereo not given)
No

Say whether its Activity is strictly beneath 200%. Entry: COc1ccc(OC)c2c1CC1c3cc(Cc4ccc(N5CCN(C)CC5)cc4)sc3CCN1C2 (stereo not given)
Yes

Say whether its Activity is strictly beneath 200%. Entry: CCc1cc2c(s1)CC1c3cc4c(cc3CCN1C2)OCO4 (stereo not given)
No

Say whether its Activity is strictly beneath 200%. Entry: COc1ccc(OC)c2c1CC1c3cc(Cc4ccc(N(C)C)cc4)sc3CCN1C2 (stereo not given)
No

Say whether its Activity is strictly beneath 200%. Entry: COc1ccc(OC)c2c1CC1c3cc(Cc4ccc(C)cc4)sc3CCN1C2 (stereo not given)
No

Say whether its Activity is strictly beneath 200%. Entry: c1ccc(Cc2cc3c(s2)CC2c4cc5c(cc4CCN2C3)OCO5)cc1 (stereo not given)
No

Say whether its Activity is strictly beneath 200%. Entry: COc1ccc(OC)c2c1CC1c3cc(Cc4ccc(S(C)(=O)=O)cc4)sc3CCN1C2 (stereo not given)
Yes

Just for reference, ChEMBL document CHEMBL4219147 is where these values come from.
